test system: Streptococcus pyogenes; test: Antibacterial activity against erm containing Streptococcus pyogenes 1079; assay type: functional
The label 1 (yes) is reserved for MIC strictly under 4 µg/mL; 0 (no) covers values equal to or above it.

See these solved cases before continuing.
CC/C=C/CN1C(=O)N(CCCCn2cnc(-c3cccnc3)c2)[C@@H]2[C@@H](C)C(=O)[C@H](C)C[C@](C)(OC)[C@H](O[C@@H]3O[C@H](C)C[C@H](N(C)C)[C@H]3O)[C@@H](C)C(=O)[C@](C)(F)C(=O)O[C@H](CC)[C@]21C    0 (no)
C/C=C/CN1C(=O)N(CCCCn2cnc(-c3cccnc3)c2)[C@@H]2[C@@H](C)C(=O)[C@H](C)C[C@](C)(OC)[C@H](O[C@@H]3O[C@H](C)C[C@H](N(C)C)[C@H]3O)[C@@H](C)C(=O)[C@](C)(F)C(=O)O[C@H](CC)[C@]21C    0 (no)
CC[C@H]1OC(=O)[C@@](C)(F)C(=O)[C@H](C)[C@@H](O[C@@H]2O[C@H](C)C[C@H](N(C)C)[C@H]2O)[C@@](C)(OC)C[C@@H](C)C(=O)[C@H](C)[C@H]2N(C/C=C/Cn3cnc4cccnc43)C(=O)N(C)[C@]12C    1 (yes)
CC[C@H]1OC(=O)[C@H](C)C(=O)[C@H](C)[C@@H](O[C@@H]2O[C@H](C)C[C@H](N(C)C)[C@H]2O)[C@](C)(OC)C[C@@H](C)C(=O)[C@H](C)[C@H]2N(CCCCn3cnc(-c4cccnc4)c3)C(=O)O[C@]12C [TELITHROMYCIN]    0 (no)
CC[C@H]1OC(=O)[C@H](C)C(=O)[C@H](C)[C@@H](O[C@@H]2O[C@H](C)C[C@H](N(C)C)[C@H]2O)[C@@](C)(OC)C[C@@H](C)C(=O)[C@H](C)[C@H]2N(CCCCn3cnc(-c4cccnc4)c3)C(=O)N[C@]12C    0 (no)

INPUT: Item C=CCN1C(=O)N(CCCCn2cnc(-c3cccnc3)c2)[C@@H]2[C@@H](C)C(=O)[C@H](C)C[C@](C)(OC)[C@H](O[C@@H]3O[C@H](C)C[C@H](N(C)C)[C@H]3O)[C@@H](C)C(=O)[C@](C)(F)C(=O)O[C@H](CC)[C@]21C : MIC beneath 4 µg/mL, strictly?
OUTPUT: 0 (no)

INPUT: Then this compound: CC[C@H]1OC(=O)[C@H](C)C(=O)[C@H](C)[C@@H](O[C@@H]2O[C@H](C)C[C@H](N(C)C)[C@H]2O)[C@@](C)(OC)C[C@@H](C)C(=O)[C@H](C)[C@H]2N(C/C=C/Cn3cnc(-c4cccnc4)c3)C(=O)N[C@]12C
OUTPUT: 0 (no)

INPUT: Then this compound: CC[C@H]1OC(=O)[C@H](C)C(=O)[C@H](C)[C@@H](O[C@@H]2O[C@H](C)C[C@H](N(C)C)[C@H]2O)[C@@](C)(OC)C[C@@H](C)C(=O)[C@H](C)[C@H]2N(C/C=C/Cn3cnc4cccnc43)C(=O)N[C@]12C
OUTPUT: 0 (no)

* * *

Reported MIC by item:
tested on: Streptococcus pneumoniae; experiment: Antibacterial activity against erm containing Streptococcus pneumoniae 1095; type: functional
Write the answer as a number in µg/mL, unit excluded.

CC[C@H]1OC(=O)[C@@](C)(F)C(=O)[C@H](C)[C@@H](O[C@@H]2O[C@H](C)C[C@H](N(C)C)[C@H]2O)[C@@](C)(OC)C[C@@H](C)C(=O)[C@H](C)[C@H]2N(CCCCn3cnc(-c4cccnc4)c3)C(=O)N[C@]12C    0.012

Kindly consider the entry below.
INPUT: What value of MIC has been recorded for this entry: CC[C@H]1OC(=O)[C@H](C)C(=O)[C@H](C)[C@@H](O[C@@H]2O[C@H](C)C[C@H](N(C)C)[C@H]2O)[C@@](C)(OC)C[C@@H](C)C(=O)[C@H](C)[C@H]2N(CCCCn3cnc(-c4cccnc4)c3)C(=O)N[C@]12C
OUTPUT: 0.049

* * *

Reported MIC by item:
test system: Haemophilus influenzae; assay: Antibacterial activity against Haemophilus influenzae 1218; format: functional
Write the answer as a number in µg/mL, unit excluded.

INPUT: What value of MIC has been recorded for this entry: CC[C@H]1OC(=O)[C@H](C)C(=O)[C@H](C)[C@@H](O[C@@H]2O[C@H](C)C[C@H](N(C)C)[C@H]2O)[C@](C)(OC)C[C@@H](C)C(=O)[C@H](C)[C@H]2N(CCCCn3cnc(-c4cccnc4)c3)C(=O)O[C@]12C
OUTPUT: 0.5

INPUT: Then this molecule: CC[C@H]1OC(=O)[C@@](C)(F)C(=O)[C@H](C)[C@@H](O[C@@H]2O[C@H](C)C[C@H](N(C)C)[C@H]2O)[C@@](C)(OC)C[C@@H](C)C(=O)[C@H](C)[C@H]2N(C/C=C/Cn3cnc4cccnc43)C(=O)N[C@]12C
OUTPUT: 0.5

INPUT: Then this molecule: CC[C@H]1OC(=O)[C@@](C)(F)C(=O)[C@H](C)[C@@H](O[C@@H]2O[C@H](C)C[C@H](N(C)C)[C@H]2O)[C@@](C)(OC)C[C@@H](C)C(=O)[C@H](C)[C@H]2N(C/C=C/Cn3cnc(-c4cccnc4)c3)C(=O)N(C)[C@]12C
OUTPUT: 1

* * *

Reported MIC by item:
tested on: Streptococcus pneumoniae; test: Antibacterial activity against erm containing Streptococcus pneumoniae 1095; type: functional
Write the answer as a number in µg/mL, unit excluded.

CC[C@H]1OC(=O)[C@H](C)C(=O)[C@H](C)[C@@H](O[C@@H]2O[C@H](C)C[C@H](N(C)C)[C@H]2O)[C@](C)(OC)C[C@@H](C)C(=O)[C@H](C)[C@H]2N(CCCCn3cnc(-c4cccnc4)c3)C(=O)O[C@]12C    0.05

Kindly consider the entry below.
INPUT: Missing value: MIC, Streptococcus pneumoniae, entry CC[C@H]1OC(=O)[C@@](C)(F)C(=O)[C@H](C)[C@@H](O[C@@H]2O[C@H](C)C[C@H](N(C)C)[C@H]2O)[C@@](C)(OC)C[C@@H](C)C(=O)[C@H](C)[C@H]2N(C/C=C/Cn3cnc(-c4cccnc4)c3)C(=O)N(C)[C@]12C . Fill in?
OUTPUT: 0.063

* * *

Reported MIC by item:
tested on: Streptococcus pneumoniae; assay: Antibacterial activity against erm containing Streptococcus pneumoniae 1095; assay type: functional
Write the answer as a number in µg/mL, unit excluded.

# annotated cases, reported MIC shown
CC[C@H]1OC(=O)[C@@](C)(F)C(=O)[C@H](C)[C@@H](O[C@@H]2O[C@H](C)C[C@H](N(C)C)[C@H]2O)[C@@](C)(OC)C[C@@H](C)C(=O)[C@H](C)[C@H]2N(CCCCn3cnc(-c4cccnc4)c3)C(=O)N(CC)[C@]12C    0.025
CC[C@H]1OC(=O)[C@@](C)(F)C(=O)[C@H](C)[C@@H](O[C@@H]2O[C@H](C)C[C@H](N(C)C)[C@H]2O)[C@@](C)(OC)C[C@@H](C)C(=O)[C@H](C)[C@H]2N(C/C=C/Cn3cnc(-c4cccnc4)c3)C(=O)N[C@]12C    0.063
CC[C@H]1OC(=O)[C@H](C)C(=O)[C@H](C)[C@@H](O[C@@H]2O[C@H](C)C[C@H](N(C)C)[C@H]2O)[C@@](C)(OC)C[C@@H](C)C(=O)[C@H](C)[C@H]2N(C/C=C/Cn3cnc(-c4cccnc4)c3)C(=O)N[C@]12C    0.063

Kindly consider the entry below.
INPUT: What value of MIC has been recorded for this entry: CC[C@H]1OC(=O)[C@@](C)(F)C(=O)[C@H](C)[C@@H](O[C@@H]2O[C@H](C)C[C@H](N(C)C)[C@H]2O)[C@@](C)(OC)C[C@@H](C)C(=O)[C@H](C)[C@H]2N(CCCCn3cnc(-c4cccnc4)c3)C(=O)N(C)[C@]12C
OUTPUT: 0.025

* * *

tested on: Streptococcus pneumoniae; test: Antibacterial activity against erm containing Streptococcus pneumoniae 1095; format: functional
readout kind: MIC (µg/mL)
Write the answer as a number in µg/mL, unit excluded.

# annotated cases, reported MIC shown
CC[C@H]1OC(=O)[C@H](C)C(=O)[C@H](C)[C@@H](O[C@@H]2O[C@H](C)C[C@H](N(C)C)[C@H]2O)[C@@](C)(OC)C[C@@H](C)C(=O)[C@H](C)[C@H]2N(C/C=C/Cn3cnc4cccnc43)C(=O)N[C@]12C    0.063
CC[C@H]1OC(=O)[C@@](C)(F)C(=O)[C@H](C)[C@@H](O[C@@H]2O[C@H](C)C[C@H](N(C)C)[C@H]2O)[C@@](C)(OC)C[C@@H](C)C(=O)[C@H](C)[C@H]2N(C/C=C/Cn3cnc4cccnc43)C(=O)N[C@]12C    0.063
C/C=C/CN1C(=O)N(CCCCn2cnc(-c3cccnc3)c2)[C@@H]2[C@@H](C)C(=O)[C@H](C)C[C@](C)(OC)[C@H](O[C@@H]3O[C@H](C)C[C@H](N(C)C)[C@H]3O)[C@@H](C)C(=O)[C@](C)(F)C(=O)O[C@H](CC)[C@]21C    0.1
CC/C=C/CN1C(=O)N(CCCCn2cnc(-c3cccnc3)c2)[C@@H]2[C@@H](C)C(=O)[C@H](C)C[C@](C)(OC)[C@H](O[C@@H]3O[C@H](C)C[C@H](N(C)C)[C@H]3O)[C@@H](C)C(=O)[C@](C)(F)C(=O)O[C@H](CC)[C@]21C    0.1
C=CCN1C(=O)N(CCCCn2cnc(-c3cccnc3)c2)[C@@H]2[C@@H](C)C(=O)[C@H](C)C[C@](C)(OC)[C@H](O[C@@H]3O[C@H](C)C[C@H](N(C)C)[C@H]3O)[C@@H](C)C(=O)[C@](C)(F)C(=O)O[C@H](CC)[C@]21C    0.05

INPUT: What value of MIC has been recorded for this entry: CC[C@H]1OC(=O)[C@@](C)(F)C(=O)[C@H](C)[C@@H](O[C@@H]2O[C@H](C)C[C@H](N(C)C)[C@H]2O)[C@@](C)(OC)C[C@@H](C)C(=O)[C@H](C)[C@H]2N(C/C=C/Cn3cnc4cccnc43)C(=O)N(C)[C@]12C
OUTPUT: 0.063
